target: Sodium/calcium exchanger 1 (Homo sapiens); test: Forward Mode Assay: The assay is based on the monitoring of intracellular Ca2+concentrations using the PBX Calcium Assay Kit from BD (Becton, Dickinson and Company) with calcium indicator dye 51-9000177BKa (BD, 640177), CHO cells expressing NCX1 were loaded with the dye, and after a preincubation period with the test compound, lonomycin (Calbiochem, 407950) was added. Ionomycin is an ionophor for Ca2+ions mediating an increase of intracellular Ca2+ions. Consequently, intracellular Ca2+ions are exchanged against extracellular Na+ions (Ca2+efflux, forward mode). The decrease of intracellular Ca2+ions was detected by measuring the fluorescence of the calcium indicator dye at a wavelength of 520 nm by a FLIPR device.Briefly, similarly as for the reverse mode, for the forward mode transport assay 18000 cells per well were seeded into a 96 well microplate (Corning COSTAR 3904) and incubated overnight in culture medium (cf. above). A total volume of 100 ul medium per well was used.; format: cell-based
Sequence (P32418 36-973 limits assumed): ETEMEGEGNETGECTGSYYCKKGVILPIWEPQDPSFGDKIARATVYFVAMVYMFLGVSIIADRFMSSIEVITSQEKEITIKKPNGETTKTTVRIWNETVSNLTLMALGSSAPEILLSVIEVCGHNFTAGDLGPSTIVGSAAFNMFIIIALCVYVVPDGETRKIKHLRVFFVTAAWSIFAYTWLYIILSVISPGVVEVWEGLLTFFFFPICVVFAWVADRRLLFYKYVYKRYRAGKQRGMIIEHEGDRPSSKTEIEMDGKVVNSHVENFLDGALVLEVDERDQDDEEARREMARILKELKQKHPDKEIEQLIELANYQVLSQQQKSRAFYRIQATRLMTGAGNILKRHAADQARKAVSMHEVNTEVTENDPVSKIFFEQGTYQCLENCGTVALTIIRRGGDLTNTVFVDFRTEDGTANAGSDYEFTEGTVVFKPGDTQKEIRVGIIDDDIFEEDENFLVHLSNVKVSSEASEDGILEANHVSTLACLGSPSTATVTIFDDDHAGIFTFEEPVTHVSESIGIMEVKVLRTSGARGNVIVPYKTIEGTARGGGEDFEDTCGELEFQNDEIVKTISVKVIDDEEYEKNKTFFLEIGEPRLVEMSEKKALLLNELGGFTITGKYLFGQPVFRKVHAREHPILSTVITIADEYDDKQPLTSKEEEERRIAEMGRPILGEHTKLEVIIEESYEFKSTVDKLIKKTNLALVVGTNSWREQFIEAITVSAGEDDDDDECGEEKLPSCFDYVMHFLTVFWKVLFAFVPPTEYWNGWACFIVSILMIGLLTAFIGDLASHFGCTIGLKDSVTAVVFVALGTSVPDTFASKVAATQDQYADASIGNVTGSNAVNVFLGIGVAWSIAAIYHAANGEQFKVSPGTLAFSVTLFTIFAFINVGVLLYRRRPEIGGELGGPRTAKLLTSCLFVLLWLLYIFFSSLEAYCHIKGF

Compound	IC50, µM
Cc1ccccc1C1CCc2cc(Oc3ncc(C(=O)NCc4ccnc(Cl)c4)s3)ccc2O1 (stereo unspecified)	1.9

meta.source: ChEMBL document CHEMBL3638669
